System: MX-1 breast xenograft, intrarenal, nude mice, tumor weight
Assay: NCI In Vivo Anticancer Drug Screen. Data for tumor model Human Mammary Carcinoma MX-1 Xenograft (intrarenal inoculation) in NU/NU BALB/C (nude) mice
Settings: endpoint: mean tumor weight change; dose: 300.0 mg/kg/injection; schedule: Q04DX003 (sc); vehicle: saline; higher = larger tumour
Inconclusive results are not listed.

# compound, T/C
rows = [
    ("[Cl][Sn]([c]1ccccc1)[c]1ccccc1", "104 % of control"),
    ("NC(N)=NOCC[C@@H](N)C(=O)O", "87 % of control"),
    ("Oc1ccc(CCl)c2cccnc12", "87 % of control"),
    ("CN(C)[C@@H]1C(=O)C(C(N)=O)=C(O)[C@@]2(O)C(=O)C3=C(O)c4c(O)ccc(Cl)c4[C@@](C)(O)[C@H]3C[C@@H]12", "155 % of control"),
    ("O=C1CCC(=O)N1CO", "73 % of control"),
    ("CC1(C)OCC2OC=CC(=O)C2O1 (stereo unspecified)", "97 % of control"),
]

---

In this section, each of the molecules is paired with its reported T/C.
Tested on: MX-1 breast xenograft, intrarenal, nude mice, tumor weight
Test: NCI In Vivo Anticancer Drug Screen. Data for tumor model Human Mammary Carcinoma MX-1 Xenograft (intrarenal inoculation) in NU/NU BALB/C (nude) mice
Conditions: endpoint: mean tumor weight change; dose: 25.0 mg/kg/injection; schedule: Q04DX003 (sc); vehicle: Klucel (hydroxypropylcellulose) (HPC); higher = larger tumour
Inconclusive results are not listed.
reportedMetric: T/C

# lineNotation, targetUnderTest, result
measured = [
    ("O=NN(CCCl)C(=O)NC1CCCCC1", "MX-1 breast xenograft, intrarenal, nude mice, tumor weight", "67 % of control"),
    ("COc1ccc(Cl)[n+]([O-])n1", "MX-1 breast xenograft, intrarenal, nude mice, tumor weight", "119 % of control"),
    ("O=S(CCCl)CCCl", "MX-1 breast xenograft, intrarenal, nude mice, tumor weight", "94 % of control"),
    ("O=S1(=O)CS(=O)(=O)OCCO1", "MX-1 breast xenograft, intrarenal, nude mice, tumor weight", "23 % of control"),
    ("CC(=O)OCC(=O)[C@@]12OC(C)(C)O[C@@H]1C[C@H]1[C@@H]3CC(C=O)=C4C=C(OCCCl)CC[C@]4(C)[C@@]3(F)[C@@H](O)C[C@@]12C", "MX-1 breast xenograft, intrarenal, nude mice, tumor weight", "93 % of control"),
]

---

In this section, each of the molecules is paired with its reported T/C.
Tested on: MX-1 breast xenograft, intrarenal, nude mice, tumor weight
Test: NCI In Vivo Anticancer Drug Screen. Data for tumor model Human Mammary Carcinoma MX-1 Xenograft (intrarenal inoculation) in NU/NU BALB/C (nude) mice
Settings: endpoint: mean tumor weight change; dose: 240.0 mg/kg/injection; schedule: Q04DX003 (ip); vehicle: saline with Tween-80; higher = larger tumour
Records with an inconclusive call do not appear.

# molecule, T/C
records = [
    ("COc1ccc(N=N/N=c2\\sc3cc(OC)ccc3n2C)cc1", "62 % of control"),
    ("O=C1CN(c2ccccc2)C(=O)C1C(=O)Nc1ccc(Cl)c(Cl)c1 (centres undefined)", "32 % of control"),
    ("CCCCN1C(=O)N(c2ccc(OCC)cc2)C2N(CCCC)C1C(C)(C)C2(C)C (centres undefined)", "98 % of control"),
    ("CNC(=O)N(C)N=NCCCl", "8 % of control"),
]
